Provide the recorded pIC50 for the entries that follow.
Tested on: HIV-1NL4-3
method_notes: P4-MAGI assay
Type: cell-based
condition_label: Human immunodeficiency virus 1, 24 h, P4 cells, 24 hour incubation, β-galactosidase expression; read-out: P4-MAGI IC50
// field semantics: pIC50 = negative decimal log of concentration (mol/L)

For C=C(C)[C@@H]1CC[C@]2(C(=O)NCc3cccc(C(=O)NCc4cc(C(=O)O)ccc4F)c3)CC[C@]3(C)C(CCC4[C@@]5(C)CC[C@H](O)C(C)(C)C5CC[C@]43C)C12 (stereo partly drawn) [Example 26] , what is its reported pIC50?
7.10

For C=C(C)[C@@H]1CC[C@]2(C(=O)NCc3ccc(F)c(C(=O)NCc4ccc(C(=O)OC)cc4)c3)CC[C@]3(C)C(CCC4[C@@]5(C)CC[C@H](O)C(C)(C)C5CC[C@]43C)C12 (stereo partly drawn) [Example 108] , what is its reported pIC50?
6.96

For C=C(C)[C@@H]1CC[C@]2(C(=O)NCc3cccc(-c4cccc(C(=O)O)c4)c3)CC[C@]3(C)C(CCC4[C@@]5(C)CC[C@H](O)C(C)(C)C5CC[C@]43C)C12 (stereo partly drawn) [Example 128] , what is its reported pIC50?
6.00

For C=C(C)[C@@H]1CC[C@]2(CNCc3cccc(C(=O)NCc4cccc(C(=O)O)c4)c3)CC[C@@]3(C)C(CCC4[C@@]5(C)CC[C@H](O)C(C)(C)C5CC[C@]43C)C12 (stereo partly drawn) [Example 143] , what is its reported pIC50?
6.92

For C=C(C)[C@@H]1CC[C@]2(C(=O)NCCc3cccc(C(=O)NCc4ccc(C(=O)NCc5cccnc5C(=O)O)cc4)c3)CC[C@]3(C)C(CCC4[C@@]5(C)CC[C@H](O)C(C)(C)C5CC[C@]43C)C12 (stereo partly drawn) [Example 193] , what is its reported pIC50?
8.05

For C=C(C)[C@@H]1CC[C@]2(C(=O)NCCc3cccc(C(=O)N[C@@H](C)c4cccc[n+]4[O-])c3)CC[C@]3(C)C(CCC4[C@@]5(C)CC[C@H](O)C(C)(C)C5CC[C@]43C)C12 (stereo partly drawn) [Example 275] , what is its reported pIC50?
6.74

From: patent US20090275583A1
